Listed here: items and their measured Ki.
molecular target: human 5-HT1a receptors (Homo sapiens); construct: expressed in transfected cells; host or cells: CHO K1 cells; assay: Competition radioligand binding, h5-HT1a; conditions: [3H]5-CT; membranes of CHO K1 cells; read-out: Ki 5-HT1A
Sequence (P08908 whole entry): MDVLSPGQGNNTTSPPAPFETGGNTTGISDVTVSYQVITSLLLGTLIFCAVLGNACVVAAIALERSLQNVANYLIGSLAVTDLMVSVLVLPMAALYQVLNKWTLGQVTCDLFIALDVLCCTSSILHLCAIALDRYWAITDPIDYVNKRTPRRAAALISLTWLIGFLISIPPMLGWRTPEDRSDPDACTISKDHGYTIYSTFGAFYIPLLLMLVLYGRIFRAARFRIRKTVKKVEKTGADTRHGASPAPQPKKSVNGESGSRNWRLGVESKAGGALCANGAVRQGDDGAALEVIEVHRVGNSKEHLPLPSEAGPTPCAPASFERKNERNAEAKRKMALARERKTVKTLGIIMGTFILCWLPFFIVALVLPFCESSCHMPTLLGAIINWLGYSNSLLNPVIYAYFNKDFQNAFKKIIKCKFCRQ
measuredQuantity: Ki (nM)

* CN(C)C(=O)NC(=N)NCc1cccc2ccccc12 | 700
* CNC(=O)NC(=N)NCc1cccc2ccccc12 | 2450
* COc1ccc(CN2CCC(CNC(=O)NC(=N)NCc3cccc4ccccc34)CC2)cc1 | 600
* N=C(NCCc1ccccc1)NC(=O)N1CCN(Cc2ccccc2)CC1 | 930
* N=C(NCc1cccc2ccccc12)NC(=O)NC1CCCc2ccccc21 (stereo not drawn) | 540
* N=C(NCc1cccc2ccccc12)NC(=O)NCC1CCN(Cc2ccc([N+](=O)[O-])cc2)CC1 | 68
* N=C(NCc1cccc2ccccc12)NC(=O)NC[C@@H]1CCCC[C@@H]1O | 54
* CNC(=O)NC(=N)NCc1ccccc1Oc1ccccc1Cl | 920

---

target: human D2S dopamine (hD2S-DA) receptors (Homo sapiens, UniProt P14416); construct: purchased Receptor Biology, Inc. (Beltsville, Md.); host or cells: A9 L cells; assay: Competition radioligand binding, hD2S dopamine; conditions: [3H]Spiperone; membranes of A9 L cells; read-out: Ki D2
Sequence (P14416 1-414 isoform P14416-2): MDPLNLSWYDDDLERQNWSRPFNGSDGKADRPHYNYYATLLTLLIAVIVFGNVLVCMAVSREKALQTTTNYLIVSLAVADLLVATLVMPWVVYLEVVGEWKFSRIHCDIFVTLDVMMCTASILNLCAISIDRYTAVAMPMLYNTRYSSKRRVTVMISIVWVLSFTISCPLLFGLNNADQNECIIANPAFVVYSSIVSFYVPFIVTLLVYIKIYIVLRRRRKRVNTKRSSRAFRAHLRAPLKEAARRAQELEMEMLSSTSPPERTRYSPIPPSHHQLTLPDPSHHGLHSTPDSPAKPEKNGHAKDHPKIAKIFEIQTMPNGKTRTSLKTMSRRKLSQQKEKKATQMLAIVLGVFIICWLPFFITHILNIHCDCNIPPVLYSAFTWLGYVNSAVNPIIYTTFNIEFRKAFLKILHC
Entries and their Ki values follow.
measuredQuantity: Ki

• COc1cccc(CN2CCC(CNC(=O)NC(=N)NCc3cccc4ccccc34)CC2)c1 = 1570 nM
• Cc1ccccc1CN1CCC(CNC(=O)NC(=N)NCc2cccc3ccccc23)CC1 = 2490 nM
• CNC(=O)NC(=N)NCc1c(OC)cccc1OC = > 2500 nM
• N#Cc1ccc(CN2CCC(CNC(=O)NC(=N)NCc3cccc4ccccc34)CC2)cc1 = > 2500 nM
• COc1cccc(CCNC(=O)NC(=N)NCc2cccc3ccccc23)c1OC = 290 nM
• CC(=O)NC(=N)NCc1cccc2ccccc12 = > 2500 nM
• N=C(NCc1cccc2ccccc12)NC(=O)NCCc1c[nH]c2ccc(Cl)cc12 = 400 nM
• N=C(NCCc1ccccc1)NC(=O)N1CCN(Cc2ccccc2)CC1 = > 2500 nM
• COc1ccc(CNC(=O)NC(=N)NCc2cccc3ccccc23)cc1 = 500 nM
• CNC(=O)NC(=N)NCc1ccccc1Oc1ccccc1Cl = > 2500 nM
• N=C(NCc1cccc2ccccc12)NC(=O)NCCCO = 500 nM
• Cc1cccc(CN2CCC(CNC(=O)NC(=N)NCc3cccc4ccccc34)CC2)c1 = 880 nM
• COc1ccccc1CN1CCC(CNC(=O)NC(=N)NCc2cccc3ccccc23)CC1 = 500 nM
• COc1cc(CNC(=O)NC(=N)NCc2cccc3ccccc23)cc(OC)c1OC = 830 nM
• N=C(NCc1cccc2ccccc12)NC(=O)NC[C@@H]1CCCC[C@H]1O = 410 nM
• N=C(NCc1cccc2ccccc12)NC(=O)NCC1(O)CCCCC1 = 1070 nM
• N=C(NCc1cccc2ccccc12)NC(=O)NCC1CCN(Cc2ccc([N+](=O)[O-])cc2)CC1 = 1870 nM
• N=C(NCc1cccc2ccccc12)NC(=O)NC1CC1 = 1790 nM

---

target: human 5HT2a receptors (Homo sapiens); construct: expressed in transfected cells; host or cells: CHO K1 cells; assay: Competition radioligand binding, 5-HT2A; details: [3H]Ketanserin; membranes of CHO K1 cells; read-out: Ki 5-HT2A
pKi: −log10 of the molar value.
Listed below: pKi values for each entry.
measuredQuantity: pKi

* Cc1ccccc1CN1CCC(CNC(=O)NC(=N)NCc2cccc3ccccc23)CC1 | 8.02
* COc1cccc(CN2CCC(CNC(=O)NC(=N)NCc3cccc4ccccc34)CC2)c1 | 8.09
* N=C(NCc1cccc2ccccc12)NC(=O)NCC1CCN(Cc2ccc([N+](=O)[O-])cc2)CC1 | 7.80
* N=C(NCc1cccc2ccccc12)NC(=O)NCC1CCN(Cc2ccc(F)cc2)CC1 | 8.02
* CCOc1ccccc1CNC(=N)NC(=O)NC | 6.40
* CC(=O)Nc1ccc(NC(=O)NC(=N)NCc2cccc3ccccc23)cc1 | 9.00
* N=C(NCc1cccc2ccccc12)NC(=O)N1CCN(Cc2ccccc2)CC1 | 7.37
* N=C(NCc1cccc2ccccc12)NC(=O)NCC1CCN(Cc2cccc(Cl)c2)CC1 | 8.06
* N=C(NCc1cccc2ccccc12)NC(=O)N1CCN(C/C=C/c2ccccc2)CC1 | 7.11
* Cc1ccc(CN2CCC(CNC(=O)NC(=N)NCc3cccc4ccccc34)CC2)cc1 | 8.17
* N=C(NCc1cccc2ccccc12)NC(=O)N1CCC(Cc2ccccc2)CC1 | 6.77
* Cc1cccc(CN2CCC(CNC(=O)NC(=N)NCc3cccc4ccccc34)CC2)c1 | 8.28
* CN(C)C(=O)NC(=N)NCc1cccc2ccccc12 | 7.77
* N=C(NCc1cccc2ccccc12)NC(=O)N[C@@H](Cc1ccc(O)cc1)C(N)=O | 9.04
* CC(=O)Nc1ccc(CN2CCC(CNC(=O)NC(=N)NCc3cccc4ccccc34)CC2)cc1 | 9.26
* N=C(NCc1cccc2ccccc12)NC(=O)NCC1CCN(Cc2cc(F)cc(F)c2)CC1 | 8.39
* N=C(NCc1cccc2ccccc12)NC(=O)NCC1CCN(Cc2ccccc2)CC1 | 8.31
* COc1ccccc1CN1CCC(CNC(=O)NC(=N)NCc2cccc3ccccc23)CC1 | 8.41
* N=C(NCCc1ccccc1)NC(=O)N1CCN(Cc2ccccc2)CC1 | 5.74
* CNC(=O)NC(=N)NCc1cccc(-c2ccccc2)c1 | 5.99
* COc1ccccc1N1CCN(C(=O)NC(=N)NCc2cccc3ccccc23)CC1 | 6.82
* C[C@@H](O)CNC(=O)NC(=N)NCc1cccc2ccccc12 | 8.82
* COc1ccc(CN2CCC(CNC(=O)NC(=N)NCc3cccc4ccccc34)CC2)cc1 | 8.89
* COc1ccc(CN2CCC(CNC(=O)NC(=N)NCc3cccc4ccccc34)CC2)cc1C | 8.00
* N=C(NCc1cccc2ccccc12)NC(=O)N[C@H]1C[C@@H]2CC[C@H]1C2 | 8.40
* COc1ccc(C(C)=O)cc1CN1CCC(CNC(=O)NC(=N)NCc2cccc3ccccc23)CC1 | 8.74
* N=C(NCc1cccc2ccccc12)NC(=O)NCC1CCN(Cc2cccc(C(F)(F)F)c2)CC1 | 6.89
* CC(=O)NC(=N)NCc1cccc2ccccc12 | 8.10
* COc1cccc(CCNC(=O)NC(=N)NCc2cccc3ccccc23)c1OC | 9.10
* N=C(NCc1cccc2ccccc12)NC(=O)NCC1(O)CCCCC1 | 9.60
* N=C(NCc1cccc2ccccc12)NC(=O)NC1CCCc2ccccc21 (centres unmarked) | 8.39
* N=C(NCc1cccc2ccccc12)NC(=O)N1CCC(C(N)=O)CC1 | 7.40
* N=C(NCc1cccc2ccccc12)NC(=O)NC[C@@H]1CCCC[C@@H]1O | 8.70
* N=C(NCc1cccc2ccccc12)NC(=O)NC1CCc2ccccc21 (centres unmarked) | 8.32
* N=C(NCc1cccc2ccccc12)NC(=O)NCC1CCN(Cc2noc(-c3ccccc3)n2)CC1 | 8.38

---

molecular target: human 5-HT7B (h5-HT7b) receptors (Homo sapiens); construct: expressed in transfected cells; experiment: Competition radioligand binding, h5-HT7b; conditions: [3H]5-CT; membranes of HEK 293 cells; read-out: Ki 5-HT7
Sequence (P34969 1-432 limits assumed): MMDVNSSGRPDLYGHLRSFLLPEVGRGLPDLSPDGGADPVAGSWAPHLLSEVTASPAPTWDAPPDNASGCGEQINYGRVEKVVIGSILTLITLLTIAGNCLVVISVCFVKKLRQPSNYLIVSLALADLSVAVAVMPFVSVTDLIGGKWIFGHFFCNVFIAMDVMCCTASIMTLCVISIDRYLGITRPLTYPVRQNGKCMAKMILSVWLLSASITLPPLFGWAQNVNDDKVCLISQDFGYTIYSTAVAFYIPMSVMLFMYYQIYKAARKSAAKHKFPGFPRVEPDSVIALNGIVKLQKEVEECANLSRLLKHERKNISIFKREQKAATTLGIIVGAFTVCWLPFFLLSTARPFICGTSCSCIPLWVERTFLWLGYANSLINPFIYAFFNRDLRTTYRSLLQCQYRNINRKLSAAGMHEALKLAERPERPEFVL
measuredQuantity: Ki (nM)

- CC(=O)NCCNC(=O)NC(=N)NCc1cccc2ccccc12: 10
- CNC(=O)/N=C(/NCc1cccc2ccccc12)NC(=O)NC: 1010
- COc1ccccc1CN1CCC(CNC(=O)NC(=N)NCc2cccc3ccccc23)CC1: 21
- N=C(NCc1cccc2ccccc12)NC(=O)NCC1CCN(Cc2cccc(Cl)c2)CC1: 21
- N=C(NCc1cccc2ccccc12)NC(=O)N[C@H]1C[C@@H]2CC[C@H]1C2: 9.7
- CC(=O)NC(=N)NCc1cccc2ccccc12: 100
- N=C(NCc1cccc2ccccc12)NC(=O)NCC1CCN(Cc2ccc(F)cc2)CC1: 19
- N=C(NCc1cccc2ccccc12)NC(=O)NCCCO: 21
- N=C(NCc1cccc2ccccc12)NC(=O)NC[C@@H]1CCCC[C@@H]1O: 8.9
- N=C(NCc1cccc2ccccc12)NC(=O)NCCc1ccc(N)cc1: 48
- N#Cc1ccc(CN2CCC(CNC(=O)NC(=N)NCc3cccc4ccccc34)CC2)cc1: 85
- Cc1ccc(CN2CCC(CNC(=O)NC(=N)NCc3cccc4ccccc34)CC2)cc1: 46
- Cc1ccccc1CNC(=O)NC(=N)NCCc1ccccn1: 250
- COc1cc(CNC(=O)NC(=N)NCc2cccc3ccccc23)cc(OC)c1OC: 30
- CN(C)C(=O)NC(=N)NCc1cccc2ccccc12: 94
- COc1ccc(CN2CCC(CNC(=O)NC(=N)NCc3cccc4ccccc34)CC2)cc1C: 18
- N=C(NCc1cccc2ccccc12)NC(=O)NCC1CCN(Cc2cccc3ccccc23)CC1: 27
- N=C(NCc1cccc2ccccc12)NC(=O)NCc1ccc(F)cc1: 24
- COc1ccc(CNC(=N)NC(C)=O)c2ccccc12: 1230
- N=C(NCc1cccc2ccccc12)NC(=O)NCCc1ccc(O)cc1: 19
- COc1ccccc1N1CCN(C(=O)NC(=N)N[C@H](C)c2ccc3ccccc3c2)CC1: 1080
- N=C(NC(=O)NCc1cccc(Cl)c1Cl)NC1CCCCC1O (stereo not drawn): 320
- N=C(NCc1cccc2ccccc12)NC(=O)NCC1CCN(Cc2ccc(F)cc2F)CC1: 32
- N=C(NCc1cccc2ccccc12)NC(=O)N1CCC(Cc2ccccc2)CC1: 16
- COc1ccccc1N1CCN(C(=O)NC(=N)N[C@H](C)c2cccc3ccccc23)CC1: 750
- N=C(NCc1cccc2ccccc12)NC(=O)NCC1CCN(Cc2noc(-c3ccccc3)n2)CC1: 91
- N=C(NCc1cccc2ccccc12)NC(=O)NCC1(O)CCCCC1: 26
- CNC(=O)NC(=N)NCc1ccccc1Oc1ccccc1Cl: 6.3
- COC(=O)NC(=N)NCc1cccc2ccccc12: 820
- N=C(NCc1cccc2ccccc12)NC(=O)NCC1CCN(Cc2ccccc2)CC1: 29
- N=C(NCc1cccc2ccccc12)NC(=O)NCc1cccnc1: 17
- N=C(NCc1cccc2ccccc12)NC(=O)N[C@@H](Cc1ccc(O)cc1)C(N)=O: 5.1
- CC(C)(CO)CNC(=O)NC(=N)NCc1cccc2ccccc12: 9.8
- N=C(NCc1cccc2ccccc12)NC(=O)NC1CCCc2ccccc21 (stereo not drawn): 24
- N=C(NCc1cccc2ccccc12)NC(=O)N1CCC2(CC1)C(=O)NCN2c1ccccc1: 11
- N=C(NCc1cccc2ccccc12)NC(=O)NCCSCc1c(F)cccc1Cl: 120
